Hey, just so you know, these numbers are from patent US20240208909A1.

Listing of recorded IC50 by entry.
Molecular target: SOS1/KRAS-G12D (Homo sapiens (Human), UniProt Q07889)
Sequence (Q07889 564-1049 limits assumed): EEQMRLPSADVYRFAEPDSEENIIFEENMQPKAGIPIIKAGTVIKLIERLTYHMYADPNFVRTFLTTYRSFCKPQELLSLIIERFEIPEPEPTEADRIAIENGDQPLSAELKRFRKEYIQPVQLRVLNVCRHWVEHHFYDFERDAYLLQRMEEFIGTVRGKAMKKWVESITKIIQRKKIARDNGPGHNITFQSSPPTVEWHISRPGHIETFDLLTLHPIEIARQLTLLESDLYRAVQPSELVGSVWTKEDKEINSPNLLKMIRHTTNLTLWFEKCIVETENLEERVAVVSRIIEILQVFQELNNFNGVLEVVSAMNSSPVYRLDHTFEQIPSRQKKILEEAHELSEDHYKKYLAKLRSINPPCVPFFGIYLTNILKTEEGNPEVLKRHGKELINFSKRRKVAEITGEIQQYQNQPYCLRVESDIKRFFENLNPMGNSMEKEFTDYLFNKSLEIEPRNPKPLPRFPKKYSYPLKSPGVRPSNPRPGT
Experiment: SOS1/KRAS-G12D binding inhibition assay (AlphaScreen)
Details: GST-SOS1 and 6*His KRAS-G12D, read-out: KrasG12D/SOS1 binding IC50
Measurement Label: IC50

Cc1c([C@@H](C)Nc2ccnc3ccc(N4C[C@@H](C)NC[C@@H]4C)cc23)cccc1C(F)(F)F    0.01 to 0.1 µM
Cc1c([C@@H](C)Nc2ccnc3ccc(N4CCNC(C)(C)C4)cc23)cccc1C(F)(F)F    0.01 to 0.1 µM
CO[C@@]1(c2ccc3nccc(N[C@H](C)c4cccc(C(F)F)c4F)c3c2)CCN(C(C)=O)C1    ≤ 0.01 µM
CO[C@@]1(c2ccc3nccc(N[C@H](C)c4cccc(C#N)c4C)c3c2)CCN(C(C)=O)C1    > 0.1 µM
CN[C@@H]1CCN(c2ccc3nccc(N[C@H](C)c4cccc(C(F)F)c4F)c3c2)C1    ≤ 0.01 µM
Cc1c([C@@H](C)Nc2ccnc3ccc(N4CC5(CCN(C)C5=O)C4)cc23)cccc1C(F)(F)F    > 0.1 µM
COc1cc2nccc(N[C@H](C)c3cccc(C(F)(F)F)c3C)c2cc1N1CCNCC1    0.01 to 0.1 µM
CC(=O)N1CCN(c2ccc3nccc(N[C@H](C)c4cccc(C(F)F)c4F)c3c2)CC1    ≤ 0.01 µM
Cc1c([C@@H](C)Nc2ccnc3ccc(N4CCNC5(CC5)C4)cc23)cccc1C(F)(F)F    0.01 to 0.1 µM
C[C@@H](Nc1ccnc2ccc(N3CC[C@H](O)C3)cc12)c1cccc(C(F)F)c1F    ≤ 0.01 µM
Cc1c([C@@H](C)Nc2c(C#N)cnc3ccc(N4CCNCC4)cc23)cccc1C(F)(F)F    > 0.1 µM
CNC1CCN(c2ccc3nccc(N[C@H](C)c4cccc(C(F)(F)F)c4C)c3c2)CC1    0.01 to 0.1 µM
Cc1c([C@@H](C)Nc2ccnc3ccc(N4CCN(c5nccs5)CC4)cc23)cccc1C(F)(F)F    > 0.1 µM
C[C@@H](Nc1ccnc2ccc(C3CCNCC3)cc12)c1cccc(C(F)F)c1F    0.01 to 0.1 µM
C[C@@H](Nc1ccnc2ccc(N3CC[C@@H](N(C)C)C3)cc12)c1cccc(C(F)F)c1F    ≤ 0.01 µM
CNC(=O)N1CC[C@](OC)(c2ccc3nccc(N[C@H](C)c4cccc(C(F)F)c4F)c3c2)C1    ≤ 0.01 µM
CC(=O)N1CCC(O)(c2ccc3nccc(N[C@H](C)c4cccc(C(F)F)c4F)c3c2)CC1    ≤ 0.01 µM
COC(=O)N1CCC(OC)(c2ccc3nccc(N[C@H](C)c4cccc(C(F)F)c4F)c3c2)CC1    ≤ 0.01 µM
Cc1c([C@@H](C)Nc2ccnc3ccc(N4CCN(C(=O)C5CCOC5)CC4)cc23)cccc1C(F)(F)F (stereo partly drawn)    0.01 to 0.1 µM
CC(=O)N1CC[C@@](F)(c2ccc3nccc(N[C@H](C)c4cccc(C(F)F)c4F)c3c2)C1    > 0.1 µM
CC(=O)N1CCN(c2ccc3nccc(N[C@H](C)c4cccc(C(F)(F)F)c4C)c3c2)CC12CC2    0.01 to 0.1 µM

----------
Listing of recorded IC50 by entry.
Biological target: SOS1/KRAS-G12D (Homo sapiens (Human), UniProt Q07889)
Test: SOS1/KRAS-G12D binding inhibition assay (AlphaScreen)
Settings: GST-SOS1 and 6*His KRAS-G12D, read-out: KrasG12D/SOS1 binding IC50
Measurement Label: IC50

CO[C@]1(c2ccc3nccc(N[C@H](C)c4cccc(C(F)F)c4F)c3c2)CCN(C(=O)C(C)C)C1 [Compound 92]    ≤ 10 nM
CC(=O)N1CCC(O)(c2ccc3nccc(N[C@H](C)c4cccc(C(F)F)c4F)c3c2)C1 (stereo partly shown) [Compound 83]    ≤ 10 nM
Cc1c([C@@H](C)Nc2ccnc3ccc(N4CCN(C(=O)C5CC5)CC4)cc23)cccc1C(F)(F)F [Compound 26]    10 to 100 nM
C[C@@H](Nc1ccnc2ccc(N3CCC(N)CC3)cc12)c1cccc(C(F)F)c1F [Compound 49]    ≤ 10 nM
Cc1c([C@@H](C)Nc2ccnc3ccc(N4CC5CC(C4)N5)cc23)cccc1C(F)(F)F [Compound 58]    10 to 100 nM
Cc1c([C@@H](C)Nc2ccnc3ccc(N4CCC(N5CCC5)CC4)cc23)cccc1C(F)(F)F [Compound 65]    10 to 100 nM
CNC(=O)N1CC[C@@](OC)(c2ccc3nccc(N[C@H](C)c4cccc(C(F)F)c4F)c3c2)C1 [Compound 101]    ≤ 10 nM
CO[C@]1(c2ccc3nccc(N[C@H](C)c4cccc(C(F)F)c4F)c3c2)CCN(C(C)=O)C1 [Compound 76]    ≤ 10 nM
CC(=O)N[C@@H]1CCN(c2ccc3nccc(N[C@H](C)c4cccc(C(F)(F)F)c4C)c3c2)C1 [Compound 38]    > 100 nM
COC1(c2ccc3nccc(N[C@H](C)c4cccc(C(F)F)c4F)c3c2)CCN(C(C)=O)CC1 [Compound 72]    ≤ 10 nM
